- PROCEDURE_SUMMARY: 2D cell viability assay (MTS)
- Assay type: cell-based, mouse
- CONDITION_LABEL: mouse, KPC cancer cells (CCs, 2D culture), Cancer cells; PXS-5505 300 (unit inferred); replicates
ENDPOINT_NAME: viability (%)
The answer is to be given in %; state only the numeric part.

[in] Form field: reported viability of Cl.Cl.NC/C=C(\F)CS(=O)(=O)c1cccc2cccnc12.O [PXS-5505]
[out] 98.8

====

- PROCEDURE_SUMMARY: Rat pharmacokinetics, single dose orally (10 mg/kg) or intravenously (5 mg/kg)
- CONDITION_LABEL: plasma, po, 10 mg/kg, half-life, oral administration
ENDPOINT_NAME: half-life

[in] Form field: reported half-life of Cl.Cl.NC/C=C(\F)CS(=O)(=O)c1cccc2cccnc12.O
[out] ~1 h
